Listed next: entries and their corresponding IC (TGI).
- System: ACHN
- test.method.notes: NCI human tumor cell panel: ACHN (Renal Cancer)
- Type: cell-based
- experimental.context: Renal Cancer, read-out: Log10 TGI (converted)

Some entries whose results are on file:
- chemical.string: "O=Cc1ccc(-c2ccc(-c3ccc(C=O)s3)[se]2)s1"
  IC (TGI): "> 100 µM"
- chemical.string: "O=Cc1ccc(-c2ccc(-c3ccc[se]3)[se]2)[se]1"
  IC (TGI): "21.9 µM"
- chemical.string: "O=Cc1ccc(-c2ccc(-c3cccs3)[se]2)s1"
  IC (TGI): "> 100 µM"

Request: Given the compound O=Cc1ccc(-c2ccc(-c3ccc(C=O)[se]3)[se]2)[se]1 , what is its reported IC (TGI)?
Response: > 100 µM

Request: Similarly, O=Cc1ccc(-c2ccc(-c3ccc(C=O)[se]3)s2)[se]1 ?
Response: > 100 µM

Request: Similarly, OCc1ccc(-c2ccc(-c3cccs3)[se]2)s1 ?
Response: 83.2 µM

====

- System: KM12
- test.method.notes: NCI human tumor cell panel: KM12 (Colon Cancer)
- Assay type: cell-based
- experimental.context: KM12, Colon Cancer, read-out: Log10 GI50 (converted)
Listed next: entries and their corresponding GI50.

- chemical.string: "OCc1ccc(-c2ccc(-c3cccs3)[se]2)s1"
  observed.property: "GI50"
  data.value: "> 100 µM"

Request: Given the compound O=Cc1ccc(-c2ccc(-c3ccc(C=O)s3)[se]2)s1 , what is its reported GI50?
Response: > 100 µM

Request: Similarly, O=Cc1ccc(-c2ccc(-c3cccs3)[se]2)s1 ?
Response: 32.4 µM

Request: Similarly, O=Cc1ccc(-c2ccc(-c3ccc[se]3)[se]2)[se]1 ?
Response: 6.31 µM

Request: Similarly, O=Cc1ccc(-c2ccc(-c3ccc(C=O)[se]3)[se]2)[se]1 ?
Response: > 100 µM

Request: Similarly, O=Cc1ccc(-c2ccc(-c3ccc(C=O)[se]3)s2)[se]1 ?
Response: > 100 µM

====

Listed next: entries and their corresponding IC (TGI).
- Test system: UACC-62
- test.method.notes: NCI human tumor cell panel: UACC-62 (Melanoma)
- Assay type: cell-based
- experimental.context: UACC-62, Melanoma, read-out: Log10 TGI (converted)
Numeric answer only, unit µM assumed.

- chemical.string: "O=Cc1ccc(-c2ccc(-c3cccs3)[se]2)s1"
  unit.symbol: "µM"
  IC (TGI): 0.0282
- chemical.string: "O=Cc1ccc(-c2ccc(-c3ccc[se]3)[se]2)[se]1"
  unit.symbol: "µM"
  IC (TGI): 10.7
- chemical.string: "O=Cc1ccc(-c2ccc(-c3ccc(C=O)s3)[se]2)s1"
  unit.symbol: "µM"
  IC (TGI): 2.82

Consider the record given below.
Request: Given the molecule OCc1ccc(-c2ccc(-c3cccs3)[se]2)s1 , what is its reported IC (TGI)?
Response: 0.0141

====

- test.method.notes: Selective cytotoxicity microculture assay, human renal carcinoma
- experimental.context: human, SCI (selectively cytotoxicity index), GI50 (RPTEC)/GI50 (A-498)
Listed next: entries and their corresponding selectivity ratio.

Some entries whose results are on file:
- chemical.string: "c1c[se]c(-c2ccc(-c3ccc[se]3)[nH]2)c1"
  observed.property: "selectivity ratio"
  data.value: "< 1"
- chemical.string: "OCc1ccc(-c2ccc(-c3cccs3)[se]2)s1"
  observed.property: "selectivity ratio"
  data.value: "> 1000"
- chemical.string: "c1c[se]c(-c2ccc(-c3ccc[se]3)[se]2)c1"
  observed.property: "selectivity ratio"
  data.value: 1
- chemical.string: "OCc1ccc(-c2ccc(-c3ccc(CO)[se]3)[se]2)[se]1"
  observed.property: "selectivity ratio"
  data.value: "> 1000"
- chemical.string: "OCc1ccc(-c2ccc(-c3ccc(CO)[se]3)s2)[se]1"
  observed.property: "selectivity ratio"
  data.value: "> 1000"
- chemical.string: "OCc1ccc(-c2ccc(-c3ccc[se]3)[nH]2)[se]1"
  observed.property: "selectivity ratio"
  data.value: "> 1000"
- chemical.string: "c1c[se]c(-c2ccc(-c3ccc[se]3)s2)c1"
  observed.property: "selectivity ratio"
  data.value: 5
- chemical.string: "c1csc(-c2ccc(-c3cccs3)[se]2)c1"
  observed.property: "selectivity ratio"
  data.value: "< 1"

Consider the record given below.
Request: Given the molecule OCc1ccc(-c2ccc(-c3ccc[se]3)[se]2)[se]1 , what is its reported selectivity ratio?
Response: > 1000
